- Tested on: CCRIS mutagenicity, Ames/micronucleus/aberration tests
- method: CCRIS mutagenicity studies
- assayConditions: Test System: AMES SALMONELLA TYPHIMURIUM; Strain/Indicator: TA98; Metabolic Activation: RAT, LIVER, S-9, AROCLOR 1254; Method: STANDARD PLATE
Activity calls are given as the source filed them. How the calls were made is not given here.
Please state which outcome applies, choosing from active, inactive

Consider the worked cases shown below.
INSERT INTO results (molecule, label) VALUES
  ('O=C/C=C/c1ccc([N+](=O)[O-])cc1', 'active'),
  ('O=C(c1ccccc1)C1OC1c1ccc(Oc2ccccc2)cc1 (stereo not given)', 'inactive'),
  ('O=C(O)CCc1ccccc1', 'inactive'),
  ('C=Cc1ccc(N)cc1', 'inactive');

Enquiry: How was CNCCCN1c2ccccc2CCc2ccccc21 classified in this test?
Return: inactive

Enquiry: How was c1ccoc1 classified in this test?
Return: inactive

---

- Tested on: CCRIS mutagenicity, Ames/micronucleus/aberration tests
- method: CCRIS mutagenicity studies
- assayConditions: Test System: AMES SALMONELLA TYPHIMURIUM; Strain/Indicator: TA100; Metabolic Activation: NONE; Method: STANDARD PLATE
- From the text: The CCRIS database contains chemical records with carcinogenicity, mutagenicity, tumor promotion, and tumor inhibition test results. It was developed by the National Cancer Institute (NCI). Data are derived from studies cited in primary journals, current awareness tools, NCI reports, and other sources. Test results have been reviewed by experts in carcinogenesis and mutagenesis. CCRIS provides historical information from the years 1985 - 2011. It is no longer updated. […]
Calls of active or inactive are those of the source. How the calls were made is not given here.
Please state which outcome applies, choosing from y (active), n (inactive)

Consider the worked cases shown below.
INSERT INTO results (compound, label) VALUES
  ('O=S(=O)(c1cc(Cl)cc(Cl)c1O)c1cc(Cl)cc(Cl)c1O', 'n'),
  ('C1=CC2OC2C=C1 (stereo not given)', 'n'),
  ('CCOP(=S)(OCC)Oc1ccc([N+](=O)[O-])cc1', 'n'),
  ('COc1ccc(S(=O)(=O)n2ncc(Cl)c(Cl)c2=O)cc1', 'n');

Read the next record carefully.
Enquiry: How was COc1ccc2oc([N+](=O)[O-])cc2c1N(CCCl)CCCl classified in this test?
Return: y

---

- Tested on: CCRIS mutagenicity, Ames/micronucleus/aberration tests
- method: CCRIS mutagenicity studies
- assayConditions: Test System: AMES SALMONELLA TYPHIMURIUM; Strain/Indicator: TA98; Metabolic Activation: NONE; Method: STANDARD PLATE
Active and inactive are the calls of the source. The rule behind the calls is not given here.
Please state which outcome applies, choosing from 1 = active, -1 = inactive

INSERT INTO results (compound, label) VALUES
  ('O=C(c1ccccc1)C(O)c1ccccc1 (configuration not stated)', -1),
  ('Cc1ccc(N=Nc2c(O)c(C(=O)O)cc3ccccc23)c(S(=O)(=O)O)c1', -1),
  ('Cc1ccc(C)c(N=Nc2c(O)ccc3ccccc23)c1', -1),
  ('CC(=O)Nc1ccc(Cc2ccc(N)cc2)cc1', -1),
  ('Cc1cccc(NS(=O)(=O)c2cccc3cccnc23)c1', -1);

Enquiry: How was N#CCCl classified in this test?
Return: -1

Enquiry: How was CCN(CC)c1ccc2nc3ccc(=[N+](CC)CC)cc-3oc2c1 classified in this test?
Return: 1

Enquiry: How was CC(=O)OC1Cc2c(C)ccc3cc4c(ccc5ccccc54)c1c23 (configuration not stated) classified in this test?
Return: 1

Enquiry: How was CN1C(=O)[C@]23CC4=CC=C[C@H](O)[C@H]4N2C(=O)[C@@]1(CO)SS3 classified in this test?
Return: -1

Enquiry: How was CSCCC(NC(=O)COc1cc(Cl)c(Cl)cc1Cl)C(=O)O (configuration not stated) classified in this test?
Return: -1

---

- System: CCRIS mutagenicity, Ames/micronucleus/aberration tests
- method: CCRIS mutagenicity studies
- assayConditions: Test System: AMES SALMONELLA TYPHIMURIUM; Strain/Indicator: TA98; Metabolic Activation: NONE; Method: STANDARD PLATE
Active and inactive are the calls of the source. How the calls were made is not given here.
Please state which outcome applies, choosing from class 1 = active, class 0 = inactive

Consider the worked cases shown below.
INSERT INTO results (compound, experimentalsystem, label) VALUES
  ('O=C1c2ccccc2-c2cccc3cccc1c23', 'CCRIS mutagenicity, Ames/micronucleus/aberration tests', 'class 0'),
  ('O=C(/C=C/c1ccccc1)c1ccc(Br)cc1', 'CCRIS mutagenicity, Ames/micronucleus/aberration tests', 'class 0'),
  ('CNC(=O)NO', 'CCRIS mutagenicity, Ames/micronucleus/aberration tests', 'class 0');

Enquiry: How was O=[N+]([O-])c1ccc2ccc3c4ccccc4cc4ccc1c2c43 classified in this test?
Return: class 1

Enquiry: How was O=C(O)c1ccccc1 classified in this test?
Return: class 0

Enquiry: How was O=[N+]([O-])C1=Cc2ccc3ccc4cccc5cc1c2c3c45 classified in this test?
Return: class 1

Enquiry: How was C#C[C@]1(O)CC[C@H]2[C@@H]3CCC4=CC(=O)CC[C@@H]4[C@H]3CC[C@@]21CC classified in this test?
Return: class 0

Enquiry: How was Cc1cc(N)c(C)c2c1[nH]c1ccccc12 classified in this test?
Return: class 0

---

- Tested on: CCRIS mutagenicity, Ames/micronucleus/aberration tests
- method: CCRIS mutagenicity studies
- assayConditions: Test System: AMES SALMONELLA TYPHIMURIUM; Strain/Indicator: TA100; Metabolic Activation: HAMSTER, LIVER, S-9, AROCLOR 1254 (30%); Method: PREINCUBATION
Active and inactive are the calls of the source. The rule behind the calls is not given here.
readout: mutagenic call

Recorded mutagenic call, per entry:
INSERT INTO measurements (molecularstring, experimentalsystem, readout, recordedresult) VALUES
  ('O=[N+]([O-])c1cccc2c([N+](=O)[O-])cccc12', 'CCRIS mutagenicity, Ames/micronucleus/aberration tests', 'mutagenic call', 'active; positive'),
  ('CC(=O)Nc1ccc(C)cc1', 'CCRIS mutagenicity, Ames/micronucleus/aberration tests', 'mutagenic call', 'inactive; negative'),
  ('Nc1ccc(F)cc1F', 'CCRIS mutagenicity, Ames/micronucleus/aberration tests', 'mutagenic call', 'active; positive'),
  ('ClC(Cl)(Cl)c1ccccc1', 'CCRIS mutagenicity, Ames/micronucleus/aberration tests', 'mutagenic call', 'active; positive');

Enquiry: For O=Cc1ccccc1Cl , what is its reported mutagenic call?
Return: inactive; negative

---

- Test system: CCRIS mutagenicity, Ames/micronucleus/aberration tests
- method: CCRIS mutagenicity studies
- assayConditions: Test System: AMES SALMONELLA TYPHIMURIUM; Strain/Indicator: TA100; Metabolic Activation: RAT, LIVER, S-9, AROCLOR 1254; Method: PREINCUBATION
Active and inactive are the calls of the source. No rule for the calls is given here.
Please state which outcome applies, choosing from 1 for active, -1 for inactive

INSERT INTO assay_data (molecularstring, experimentalsystem, label) VALUES
  ('CCC(=O)OCc1ccccc1[N+](=O)[O-]', 'CCRIS mutagenicity, Ames/micronucleus/aberration tests', -1);

Enquiry: How was CC(=O)CCC(C)=O classified in this test?
Return: -1

Enquiry: How was O=C1CCCO1 classified in this test?
Return: -1

Enquiry: How was CCN(CC)S(=O)(=O)c1ccc(NC(C)=O)cc1 classified in this test?
Return: -1

Enquiry: How was c1ccc2c(c1)ccc1c3ccccc3sc21 classified in this test?
Return: 1

Enquiry: How was CCC(=O)C(C)=O classified in this test?
Return: -1

Enquiry: How was ClC(Cl)(Cl)C(Cl)(Cl)Cl classified in this test?
Return: -1

Enquiry: How was O=c1[nH]c(=O)n([C@H]2C[C@H](O)[C@@H](CO)O2)cc1CCCl classified in this test?
Return: -1

Enquiry: How was Cc1nccc2c1[nH]c1ccccc12 classified in this test?
Return: -1

Enquiry: How was c1ccc(N2CCNCC2)cc1 classified in this test?
Return: -1

Enquiry: How was Oc1cccc2c3ccccc3c3cc4ccccc4cc3c12 classified in this test?
Return: -1

---

- Tested on: CCRIS mutagenicity, Ames/micronucleus/aberration tests
- method: CCRIS mutagenicity studies
- assayConditions: Test System: AMES SALMONELLA TYPHIMURIUM; Strain/Indicator: TA100; Metabolic Activation: RAT, LIVER, S-9, AROCLOR 1254; Method: STANDARD PLATE
The source made the active and inactive calls. How the calls were made is not given here.
Please state which outcome applies, choosing from TRUE (active), FALSE (inactive)

Consider the worked cases shown below.
INSERT INTO assay_data (molecule, label) VALUES
  ('O=C(O)/C=C/c1cccc([N+](=O)[O-])c1', 'FALSE'),
  ('CCN(CC)CC(=O)Nc1c(C(=O)c2ccccc2F)c(C)nn1C', 'FALSE');

Enquiry: How was CCC(=O)Nc1ccc(Cl)c(Cl)c1 classified in this test?
Return: FALSE

Enquiry: How was O=[N+]([O-])c1ccc2ccc3cc4c(c5ccc1c2c35)CCC=C4 classified in this test?
Return: TRUE

Enquiry: How was CCCCOc1cc(N=Nc2ccc(NCCO)cc2NCCO)ccc1N=Nc1c(S(=O)(=O)O)cc2ccc(N)cc2c1O classified in this test?
Return: FALSE

Enquiry: How was O=C1CN=C(c2ccccc2)c2cc([N+](=O)[O-])ccc2N1 classified in this test?
Return: FALSE

Enquiry: How was CCOC(=O)C1C(C=C(C)C)C1(C)C (stereo not drawn) classified in this test?
Return: FALSE

Enquiry: How was CC1=C[C@H]2O[C@@H]3[C@H](O)C[C@](C)([C@@]2(CO)[C@H](O)C1=O)[C@]31CO1 classified in this test?
Return: FALSE

Enquiry: How was CCCCOCCOCCOCc1cc2c(cc1CCC)OCO2 classified in this test?
Return: FALSE

Enquiry: How was CNc1ccc(NCCO)c2c1C(=O)c1ccccc1C2=O classified in this test?
Return: FALSE

Enquiry: How was CC1=CC=C(C(C)C)CC1 classified in this test?
Return: FALSE

Enquiry: How was CC1=C(/C=C/C(C)=C/C=C/C(C)=C/C=C/C=C(C)/C=C/C=C(C)/C=C/C2=C(C)CCCC2(C)C)C(C)(C)CCC1 classified in this test?
Return: FALSE

Enquiry: How was FC(F)(F)c1ccccc1Cl classified in this test?
Return: FALSE

Enquiry: How was O=C1Nc2cc3ccccc3c3c4c(cc1c23)OCO4 classified in this test?
Return: TRUE

Enquiry: How was Nc1ccc(F)cc1 classified in this test?
Return: TRUE

Enquiry: How was O=NN1CCSC1[C@H](O)[C@@H](O)[C@@H](O)CO (stereo partly drawn) classified in this test?
Return: FALSE

Enquiry: How was CC(=O)Nc1ccc2c(c1)Cc1cccc(O)c1-2 classified in this test?
Return: TRUE

Enquiry: How was C[C@H](CCC(=O)O)[C@H]1CC[C@H]2[C@@H]3CC[C@@H]4C[C@H](O)CC[C@]4(C)[C@H]3CC[C@]12C classified in this test?
Return: FALSE
